# RUN DESCRIPTION: yeast display, Sf9 membrane polyspecificity reagent, FACS + sequencing; frameworks hold sequencing errors
ENDPOINT: polyreactivity (PSR sort gate)

{"SEQ": "QVQLVESGGGLVQAGGSLRLSCAASGRTFYVYAMGWYRQAPGKERELVAAITRGGRTKYADSVKGRFTISRDNAKNTVYLQMNSLKPEDTAVYYCATVASPNRGGVSRYDYWGQGTQVTVSS", "ENDPOINT": "polyreactivity (PSR sort gate)", "REPORTED VALUE": "high polyreactivity"}
{"SEQ": "QVQLVESGGGLVQARGSLRLSCAASGGNISYNAMGRYRQAPGKEREFVASISSSGGRTYYADSVKGRFTISRDNAKNTVYLQMNSLKPEDTAVFYCNADAQVEYGLFGQGWVTSFDYWGEGTQVTVSS", "ENDPOINT": "polyreactivity (PSR sort gate)", "REPORTED VALUE": "low polyreactivity"}
{"SEQ": "QVQLVESGGGLVQAGGTLRLSCAASGITFSDYTMGWYRQAPGKERELVDAISTSGGSTYYADSVKGRFTISRDNAKNTVYLQMNSQKPEDTAVYYCAAISAVTLRGYYYWGQRTQVTVSS", "ENDPOINT": "polyreactivity (PSR sort gate)", "REPORTED VALUE": "high polyreactivity"}
{"SEQ": "QVQLVESGGGLVQAGGSLRLSCAASGSIFQYNAMGWYRQAPGKERELVAAINGGGSTYYADSEKGRFTISRDNAKNTVYLQMNSLKPEDTAVYYCAADGGAYSYRGPGKFGIEDSWGQGTQVTVSS", "ENDPOINT": "polyreactivity (PSR sort gate)", "REPORTED VALUE": "low polyreactivity"}
{"SEQ": "QVQLVESGGGLVQAGGSLRLSCAASGRIYRYAMGWYRQAPGKERELVAAISGGGGRTYYADSVKGRFTISRDNAKNTFYLQLNSLKPEVTAVYDCAVDPYFYYYGDYYFDYWGQGTQVTVSS", "ENDPOINT": "polyreactivity (PSR sort gate)", "REPORTED VALUE": "high polyreactivity"}
{"SEQ": "QVQLVESVGGLVQAGGSLRLSCAASGFIFRKYVMGLYIQAPGKERELVAAITRSCTSTYYADSVKGRFTISRDNAKNTVYLQMNSLKPEDTAVYYCNVGSDGWYYWGQGTQVTVSS", "ENDPOINT": "polyreactivity (PSR sort gate)", "REPORTED VALUE": "low polyreactivity"}

QUERY: Param item = "QVQLVESGGGLVQAGGSLRLSCAASGITFAYKAMGWYRQAPGTERELVARITSGGRTYYSDSVKARFTISRDNAMNTVYLQMNSLKPEDTAVYYCNAKEGSRYRKYDYWGQGTQVTVSS" ; retrieve measured polyreactivity (PSR sort gate).
RESULT: low polyreactivity

QUERY: Which polyreactivity (PSR sort gate) value is on record for "QVQIVESGGGLVQAGGSLRLSCAASGRTFTAYAMGWYRQAPGKERELVAAITTSGGTTYYADSVKGRFTISRDNAKNTVYLQMKSLKPEDTAVYYCAADVVVSWWLIYDYWGQGTQVTVSS" ?
RESULT: low polyreactivity

QUERY: Requested read-out: polyreactivity (PSR sort gate). Entry: "QVQLVESGGGLVQAGGSLRLSCADSGRTFGSNAMGWYRQAPGKERELVAAISSTVSTNYADSVKGRFTISRDNAKNTVYLQMNSLKPEDTAVYYCNVTRHYSYVSEYDYWGQGTQVTVSS"
RESULT: low polyreactivity

QUERY: Given the entry "QVQLVESGGGLVQAGGSLRLSCAASGRTFTFNAMGWYRQAPGKERELVARIDWRGITYADSVKGRFTISRDNAKNTVYLQMNSLKPEDTAVYYCAAVWLHISYYGKYDYWGQGTQVTVSS" , report its measured polyreactivity (PSR sort gate).
RESULT: low polyreactivity

QUERY: Requested read-out: polyreactivity (PSR sort gate). Entry: "QVQLVESGGGLVQAGGSLRLTCAASGSTFRKNVMGWYRQAPGKERELVARISNSGGSTNYADSVKGRFTISRDNAKITVYLQINSLKPADTAVYNCNARKYTNHATYDYWGQGTQVTVSS"
RESULT: high polyreactivity

QUERY: // polyreactivity (PSR sort gate) lookup, key: "QVQLVESGGGLDQAGGSLRLSCAASGRTFVYYALGWYRQAPRQERELVAAITWSGGRTYYADSVKGRFTISRDNAKNTVYLQMNSLKPEDTAVYYCNRDQWAWESGYAYNYCGQGTQVTVSS"
RESULT: low polyreactivity

QUERY: Any idea what its polyreactivity (PSR sort gate) is? The sequence is "QVQLVESGGGLVQAGGSLRLSCAASGFIFRWYAMGWYRQAPGKERELVASIDSSGTRTYYADSVKGRFTISRDNAKNTVYLQMNSLKPEDTAVYYCNAEPSSLGETDYDYWGQGTQVTVSS"
RESULT: low polyreactivity

QUERY: Name the recorded polyreactivity (PSR sort gate) for "QVQLVESGGGLVQAGGSLRLSCAASGFTIYLYTMGWYRQAPGKERELVAAITSSGTRTYYADSVKGRFTISRDNAKNTVYLQMNSLKPEDTAVYYCNAARYGRHLSTYDYWGQGTQVTVSS" .
RESULT: high polyreactivity

QUERY: Which value of polyreactivity (PSR sort gate) has been reported for "QVKLVESGGGLVQAGGSLRLSCDASGFIFSLYAMGWYRQEHGKERDLVAAISKRGGSTNYADSVKGRFTISRDNAKNTVYLQMNSLKTEDTAVYYCAKARPVFLYDHWGQGTQLTVSS" in the records?
RESULT: high polyreactivity

QUERY: Request the reported polyreactivity (PSR sort gate) associated with "QVQLVESGGGLVQAGGSLRLSCAASGISFEYYAMGWYRQAPGKERELVAAITRGGSTYYADSVKGRFTISRDNAKNTVYLQMNSLKPEDTAVYYCAADRYYYEYDYWGQGTQVTVSS"
RESULT: low polyreactivity

QUERY: Which measured polyreactivity (PSR sort gate) value corresponds to "QVQLVETGGGLVQAGGSLRLSCAASGFIFEFYAMGWYRQAPGKERELVAAITGRGGSTYYADSVKGRFTISRDNAKNTVYLQMNSLKPEDTAVYYCAASIGGQVPGFGWYDYWGQGTQVTVSS" ?
RESULT: low polyreactivity

QUERY: Given the entry "QVQLVESGGGLVQAGGSLRLSCAASGFTFGYYGMGWYRQAPGKERELVAAISWSGGSTYYADSVKGRFTISRDNAKNTVYLQMNSLKPEDTAVDYCNADYAGFYQRRYIEDDYWGQGTQVTVSS" , report its measured polyreactivity (PSR sort gate).
RESULT: low polyreactivity
